Test system: mouse P2X4 (Mus musculus, UniProt Q9JJX6)
Construct: expressed in transfected cells
Sequence (Q9JJX6 1-388): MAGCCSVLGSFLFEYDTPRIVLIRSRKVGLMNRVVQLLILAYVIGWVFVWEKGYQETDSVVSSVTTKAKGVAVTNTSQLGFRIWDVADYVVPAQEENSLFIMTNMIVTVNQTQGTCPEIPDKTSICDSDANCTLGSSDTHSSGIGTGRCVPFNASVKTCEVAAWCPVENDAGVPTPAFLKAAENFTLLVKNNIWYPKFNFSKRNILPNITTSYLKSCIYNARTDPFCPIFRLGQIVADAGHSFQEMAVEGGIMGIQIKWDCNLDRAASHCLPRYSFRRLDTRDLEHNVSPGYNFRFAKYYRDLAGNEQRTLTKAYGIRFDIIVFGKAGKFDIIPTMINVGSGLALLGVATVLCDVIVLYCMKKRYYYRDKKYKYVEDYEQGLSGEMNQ
Assay name: Intracellular Ca2+ assay, antagonists against Ca2+ responses evoked by EC80 ATP (1.5 µM) in 1321N1 cells expressing mouse P2X4
Assay type: cell-based
Run parameters: read-out: IC50 Mouse
Experimental endpoint: IC50 (µM)
Response body: numeric value in µM, unit text excluded.

Fill in reported IC50 for this entry: Cc1ccc(S(=O)(=O)N2c3ccccc3Oc3ccccc32)cc1 [PSB-12062, N-(p-methylphenylsulfonyl)phenoxazine] 3

----------
Test system: human P2X4 (Homo sapiens, UniProt Q99571)
Construct: expressed in transfected cells
Sequence (Q99571 whole entry): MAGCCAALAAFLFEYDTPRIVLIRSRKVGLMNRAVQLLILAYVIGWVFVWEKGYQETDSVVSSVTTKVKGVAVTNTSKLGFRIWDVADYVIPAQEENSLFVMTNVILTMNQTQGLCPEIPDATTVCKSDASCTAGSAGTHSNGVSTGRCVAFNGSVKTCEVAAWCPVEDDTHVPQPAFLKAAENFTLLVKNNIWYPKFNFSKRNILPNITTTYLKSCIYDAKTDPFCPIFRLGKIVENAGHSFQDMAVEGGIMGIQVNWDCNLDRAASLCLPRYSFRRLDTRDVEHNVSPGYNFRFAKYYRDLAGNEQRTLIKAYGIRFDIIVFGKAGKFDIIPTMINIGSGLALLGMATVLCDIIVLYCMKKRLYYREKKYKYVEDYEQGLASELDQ
Assay name: Intracellular Ca2+ assay (Fura-2, FlexStation 3), agonist responses in 1321N1 cells stably expressing human P2X4
Format: cell-based
Run parameters: human P2X4
Experimental endpoint: Agonist action at human P2X4 (in words)

CSc1nc(N)c2ncn([C@@H]3O[C@H](COP(=O)(O)OP(=O)(O)OP(=O)(O)O)[C@@H](O)[C@H]3O)c2n1 [2-MeSATP, 2-(Methylthio)adenosine 5′-triphosphate]
partial agonist
Nc1ncnc2c1ncn2C1OC(COP(=O)(O)OP(=O)(O)OP(=O)(O)O)C(OC(=O)c2ccc(C(=O)c3ccccc3)cc2)C1O (stereo not shown) [BzATP]
partial agonist
Nc1ccn([C@@H]2O[C@H](COP(=O)(O)OP(=O)(O)OP(=O)(O)O)[C@@H](O)[C@H]2O)c(=O)n1 [CTP, Cytidine 5′-triphosphate]
partial agonist
